- System: SLVL (B-Cell Non-Hodgkin's Lymphoma);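 further: after 72 h of two-drug dosing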
- assay-remarks: Bliss excess, mean over the matrix (fraction); higher = more synergy
Task for the reader: assign each of the following compounds its reported Bliss excess.
Numbers only.

Inquiry: Consider the compound Cc1c2c(nn1C)CSCc1cc(n(C)n1)CSc1cc(c3ccccc3c1)OCCCc1c(C(=O)O)n(C)c3c-2c(Cl)ccc13 [AZD5991] + C[C@@H]1COCCN1C2=NC(=NC(=C2)C3(CC3)[S@](=N)(=O)C)C4=C5C=CNC5=NC=C4 [AZD6738] (first compound max 1 µM, 7x7, partner max 10 µM) tested on SLVL (B-Cell Non-Hodgkin's Lymphoma); state its Bliss excess.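 Further: after 72 h of two-drug dosing.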
Reply text: 0.031

Read the next record carefully.
Inquiry: Lab note: SLVL (B-Cell Non-Hodgkin's Lymphoma) assay, enter Bliss excess for COc1cccc(OCCCN)c1-c1cc(Nc2cnc(C#N)cn2)n[nH]1 [Prexasertib] + CCc1c2c(nc3ccc(O)cc13)-c1cc3c(c(=O)n1C2)COC(=O)[C@]3(O)CC [SN-38] (first compound max 1 µM, 7x7, partner max 0.3 µM) here
Reply text: -0.0258
